target-or-system: hERG (Homo sapiens)
Sequence (Q12809 whole entry): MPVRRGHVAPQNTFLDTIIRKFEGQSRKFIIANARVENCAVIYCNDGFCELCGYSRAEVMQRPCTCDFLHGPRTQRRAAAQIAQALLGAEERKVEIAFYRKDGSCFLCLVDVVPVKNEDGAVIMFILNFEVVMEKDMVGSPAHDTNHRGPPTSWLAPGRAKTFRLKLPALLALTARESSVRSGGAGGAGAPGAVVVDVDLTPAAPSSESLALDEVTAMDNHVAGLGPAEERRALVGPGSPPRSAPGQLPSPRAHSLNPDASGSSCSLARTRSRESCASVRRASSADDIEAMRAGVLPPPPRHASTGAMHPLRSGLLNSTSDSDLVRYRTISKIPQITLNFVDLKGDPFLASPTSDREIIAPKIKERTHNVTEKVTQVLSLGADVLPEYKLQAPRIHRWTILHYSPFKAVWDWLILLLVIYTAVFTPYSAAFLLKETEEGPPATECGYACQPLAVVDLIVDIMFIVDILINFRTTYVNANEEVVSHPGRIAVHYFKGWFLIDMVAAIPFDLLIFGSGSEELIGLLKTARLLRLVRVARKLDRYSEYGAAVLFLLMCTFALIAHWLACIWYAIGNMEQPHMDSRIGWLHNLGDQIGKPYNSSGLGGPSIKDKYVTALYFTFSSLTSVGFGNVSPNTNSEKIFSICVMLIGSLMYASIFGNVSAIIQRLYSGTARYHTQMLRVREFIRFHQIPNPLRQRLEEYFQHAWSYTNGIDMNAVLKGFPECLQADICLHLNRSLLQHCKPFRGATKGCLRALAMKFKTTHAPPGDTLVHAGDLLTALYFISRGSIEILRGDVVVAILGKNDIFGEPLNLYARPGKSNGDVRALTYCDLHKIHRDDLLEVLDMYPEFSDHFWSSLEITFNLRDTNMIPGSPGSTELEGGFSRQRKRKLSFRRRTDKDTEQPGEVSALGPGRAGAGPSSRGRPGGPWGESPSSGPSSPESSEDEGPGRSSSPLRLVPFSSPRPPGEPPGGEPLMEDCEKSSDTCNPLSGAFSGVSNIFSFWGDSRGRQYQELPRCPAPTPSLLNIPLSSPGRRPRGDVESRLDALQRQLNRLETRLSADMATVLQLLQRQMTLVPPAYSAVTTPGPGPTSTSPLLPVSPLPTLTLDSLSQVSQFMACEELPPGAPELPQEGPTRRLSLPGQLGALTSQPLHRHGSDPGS
measurement-protocol: cell-based
test-settings: (-LOG10(IC50), µM)
log10 IC50 overview
Please be aware that the numbers have been log10-transformed from IC50 in µM.

ClC1=C(Cl)[C@]2(Cl)[C@H]3[C@H]([C@@H]4C=C[C@H]3C4)[C@@]1(Cl)C2(Cl)Cl [Aldrin] :: 1.37
CC(C)CC(C)Nc1ccc(Nc2ccccc2)cc1 (stereo not drawn) [6PPD] :: 1.46
OC1(c2ccc(Cl)c(C(F)(F)F)c2)CCN(CCCC(c2ccc(F)cc2)c2ccc(F)cc2)CC1 [Penfluridol] :: -0.62
CC(Cc1ccc(C(C)(C)C)cc1)CN1C[C@@H](C)O[C@@H](C)C1 (stereo partly drawn) [(2R,6S)-Fenpropimorph] :: 1.19

Inquiry: # get_value(readout='log10 IC50', item= CCCCCCCCCCCCCCn1cc[n+](C)c1 )
Reply text: 0.94

Inquiry: # get_value(readout='log10 IC50', item= CN(c1nccc(=O)[nH]1)C1CCN(c2nc3ccccc3n2Cc2ccc(F)cc2)CC1 [Mizolastine] )
Reply text: 0.34

Inquiry: # get_value(readout='log10 IC50', item= CC(CC1c2ccccc2CCc2ccccc21)CN(C)C (stereo not drawn) [Butriptyline] )
Reply text: 1.23

Inquiry: # get_value(readout='log10 IC50', item= CC(C(O)c1ccc(O)cc1)N1CCC(Cc2ccccc2)CC1 (stereo not drawn) [Ifenprodil] )
Reply text: 0.85

Inquiry: # get_value(readout='log10 IC50', item= C[N+]1(CC2COC(c3ccccc3)(C3CCCCC3)O2)CCCCC1 (stereo not drawn) [Oxapium iodide] )
Reply text: 1.15
